The origin of these recorded values is PubChem BioAssay AID1159580.

Test: chemical genetic growth profiling, strain panel (AID 1159580);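 note: tested at 20 µM; growth read once vehicle control cultures reached saturation at 30 °C; lower values mean less growth of the strain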
Details: S. cerevisiae deletion strains, growth OD, locus YDL040C, strain nat1
Out of some 5,500 compounds screened, about 2,000 (36%) were called active. Inconclusive results (about 18%) are left out. Cut-off read from the data, not from the text of the source: active = normalized growth mostly below about 0.91 (no sharp cut-off); inconclusive = no clear call, values can overlap the other calls; inactive = mostly above about 0.92. The list shows a part of the results.
Please answer using one outcome listed in active, inactive

[ask] // return assay outcome for NC(Cn1ccc(=O)c(O)c1)C(=O)O (centres undefined)
[reply] inactive

[ask] // return assay outcome for `O=C(O)c1cccnc1`
[reply] inactive

[ask] // return assay outcome for `Cc1nc(N)cc(C[n+]2csc(CCO)c2C)n1`
[reply] inactive

[ask] // return assay outcome for CC12CCC(=O)C=C1CCC1C2[C@@H](O)CC2(C)C1CC[C@]2(O)C(=O)COP(=O)(O)O (some centres undefined)
[reply] inactive

[ask] // return assay outcome for CC(N=C(NC#N)Nc1ccncc1)C(C)(C)C (centres undefined)
[reply] inactive

[ask] // return assay outcome for `N[C@@H](CCC(=O)N[C@@H](CS)C(=O)NCC(=O)O)C(=O)O`
[reply] inactive

[ask] // return assay outcome for COc1ccc(C2Sc3ccccc3N(CCN(C)C)C(=O)C2OC(C)=O)cc1 (centres undefined)
[reply] inactive

[ask] // return assay outcome for `CS(=O)(=O)Nc1ccc([N+](=O)[O-])cc1Oc1ccccc1`
[reply] inactive

[ask] // return assay outcome for `Cc1cn[nH]c1`
[reply] inactive

[ask] // return assay outcome for `CN(C)[C@@H]1C(=O)C(C(N)=O)=C(O)[C@@]2(O)C(=O)C3=C(O)c4c(O)ccc(Cl)c4[C@@H](O)[C@H]3C[C@@H]12`
[reply] inactive

[ask] // return assay outcome for COc1ccccc1OCC(O)CO (centres undefined)
[reply] inactive

[ask] // return assay outcome for CC(C)c1ccc2c(c1)CCC1[C@](C)(CN)CCC[C@]21C (some centres undefined)
[reply] inactive

[ask] // return assay outcome for `CN(C)CCCN1c2ccccc2Sc2ccc(Cl)cc21`
[reply] active

[ask] // return assay outcome for `CC1=CC(=O)c2ccccc2C1=O`
[reply] inactive

[ask] // return assay outcome for CC(=O)OCC(=O)[C@@]1(O)[C@H](C)CC2C3CCC4=CC(=O)C=C[C@]4(C)[C@@]3(F)[C@@H](O)C[C@@]21C (some centres undefined)
[reply] inactive

[ask] // return assay outcome for CC(C)(C)NCC(O)c1ccc(O)c(CO)c1 (centres undefined)
[reply] inactive

[ask] // return assay outcome for `CN(C)CCCN1c2ccccc2Sc2ccccc21`
[reply] inactive

[ask] // return assay outcome for NCC(N)C(=O)c1ccccc1 (centres undefined)
[reply] inactive

[ask] // return assay outcome for `O=C(OCc1ccccc1)c1ccccc1`
[reply] inactive

[ask] // return assay outcome for `C=C1c2c(Cl)ccc(O)c2C(O)=C2C(=O)[C@]3(O)C(O)=C(C(N)=O)C(=O)[C@@H](N(C)C)[C@@H]3[C@@H](O)[C@H]12`
[reply] inactive

[ask] // return assay outcome for `CN(C)[C@@H]1C(=O)C(C(N)=O)=C(O)[C@@]2(O)C(=O)C3=C(O)c4c(O)cccc4[C@@](C)(O)[C@H]3[C@H](O)[C@@H]12`
[reply] inactive

[ask] // return assay outcome for CC(CCC(=O)O)[C@H]1CCC2C3C(=O)C[C@@H]4CC(=O)CC[C@]4(C)C3CC(=O)[C@@]21C (some centres undefined)
[reply] inactive

[ask] // return assay outcome for `COC(=O)c1c(C)c2c(c(C)c1O)OC(=O)c1c(C)c(Cl)c(O)c(Cl)c1O2`
[reply] inactive

[ask] // return assay outcome for CC(C)=CCCC(C)[C@@H]1CC[C@]2(C)C3=C(CC[C@@]12C)C1(C)CC[C@H](O)C(C)(C)C1CC3 (some centres undefined)
[reply] active
